Attribution: paper PMC8694051

Target: Caspase 2 (Homo sapiens, UniProt P42575)
Sequence (P42575 1-452): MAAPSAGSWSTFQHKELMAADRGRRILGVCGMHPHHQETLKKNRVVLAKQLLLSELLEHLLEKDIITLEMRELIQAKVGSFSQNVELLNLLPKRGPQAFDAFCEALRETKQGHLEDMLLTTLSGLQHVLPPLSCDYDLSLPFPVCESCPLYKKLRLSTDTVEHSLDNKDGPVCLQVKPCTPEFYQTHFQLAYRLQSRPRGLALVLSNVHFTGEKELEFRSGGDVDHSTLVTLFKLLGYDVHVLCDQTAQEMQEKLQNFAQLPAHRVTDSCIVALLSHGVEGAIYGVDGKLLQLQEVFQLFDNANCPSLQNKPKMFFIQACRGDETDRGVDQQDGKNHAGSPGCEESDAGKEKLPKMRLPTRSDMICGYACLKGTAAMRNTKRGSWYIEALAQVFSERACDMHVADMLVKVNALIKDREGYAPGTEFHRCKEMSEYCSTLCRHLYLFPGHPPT
pIC50: −log10 of the molar value. Residues, ends and D or L forms follow the SMILES beside them.
endpoint: pIC50

- CC[C@H](C)[C@H](NC(C)=O)C(=O)N[C@@H](CCC(=O)O)C(=O)N[C@H](C(=O)N[C@H](C=O)CC(=O)O)[C@@H](C)O [IETD-CHO] (Ac-IETD-aldehyde): 6.26

---

Below are pIC50 values recorded for Thrombin (Homo sapiens).
pIC50: −log10 of the molar value.
endpoint: pIC50

• CC(=O)N[C@@H](Cc1c[nH]c2ccccc12)C(=O)N[C@@H](Cc1ccccc1)C(=O)N[C@@H](CCCNC(=N)N)C(=O)c1nc2ccccc2s1 = < 4.70
• CC(=O)N[C@@H](CCC(N)=O)C(=O)N[C@@H](Cc1ccccc1)C(=O)N[C@@H](CCCNC(=N)N)C(=O)c1nc2ccccc2s1 = < 4.70
• CC(=O)N[C@@H](CO)C(=O)N[C@@H](CCCCN)C(=O)N[C@@H](Cc1ccccc1)C(=O)N[C@@H](CCCNC(=N)N)C(=O)c1nccs1 = < 4.70
• N=C(N)c1ccc2cc(OC(=O)c3ccc(N=C(N)N)cc3)ccc2c1 [Nafamostat, reference compound] = 5.30
• CC(=O)N[C@@H](Cc1ccccc1)C(=O)N[C@@H](CC(C)C)C(=O)N[C@@H](Cc1ccccc1)C(=O)N[C@@H](CCCNC(=N)N)C(=O)c1nc2ccccc2s1 = < 4.70
• CC(=O)NC(CO)C(=O)NC(CCCCN)C(=O)NC(CC(C)C)C(=O)NC(CCCNC(=N)N)C(=O)c1nc2ccccc2s1 (centres unmarked) = < 4.70
• CC(=O)N[C@@H](CCCCN)C(=O)N[C@@H](CCC(N)=O)C(=O)N[C@@H](Cc1ccccc1)C(=O)N[C@@H](CCCNC(=N)N)C(=O)c1nccs1 = < 4.70
• CC(=O)N[C@H](Cc1c[nH]c2ccccc12)C(=O)N[C@@H](Cc1ccccc1)C(=O)N[C@@H](CCCNC(=N)N)C(=O)c1nc2ccccc2s1 = 5.43

---

Target: Caspase 10 (Homo sapiens)
Sequence (Q92851 220-521): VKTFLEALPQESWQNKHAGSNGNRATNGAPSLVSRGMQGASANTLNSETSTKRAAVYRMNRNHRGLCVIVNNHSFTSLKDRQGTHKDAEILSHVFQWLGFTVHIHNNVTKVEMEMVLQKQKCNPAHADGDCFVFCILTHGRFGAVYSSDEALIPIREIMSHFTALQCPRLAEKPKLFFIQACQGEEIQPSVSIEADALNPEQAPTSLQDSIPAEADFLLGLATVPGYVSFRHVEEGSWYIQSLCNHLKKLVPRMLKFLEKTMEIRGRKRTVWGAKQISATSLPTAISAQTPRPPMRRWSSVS
pIC50: −log10 of the molar value. Residues, ends and D or L forms follow the SMILES beside them.
endpoint: pIC50

• CC[C@H](C)[C@H](NC(C)=O)C(=O)N[C@@H](CCC(=O)O)C(=O)N[C@H](C(=O)N[C@H](C=O)CC(=O)O)[C@@H](C)O [IETD-CHO] (Ac-IETD-aldehyde) = 8.04

---

biological target: Matriptase (Homo sapiens)
Sequence (Q9Y5Y6 whole entry, species assumed): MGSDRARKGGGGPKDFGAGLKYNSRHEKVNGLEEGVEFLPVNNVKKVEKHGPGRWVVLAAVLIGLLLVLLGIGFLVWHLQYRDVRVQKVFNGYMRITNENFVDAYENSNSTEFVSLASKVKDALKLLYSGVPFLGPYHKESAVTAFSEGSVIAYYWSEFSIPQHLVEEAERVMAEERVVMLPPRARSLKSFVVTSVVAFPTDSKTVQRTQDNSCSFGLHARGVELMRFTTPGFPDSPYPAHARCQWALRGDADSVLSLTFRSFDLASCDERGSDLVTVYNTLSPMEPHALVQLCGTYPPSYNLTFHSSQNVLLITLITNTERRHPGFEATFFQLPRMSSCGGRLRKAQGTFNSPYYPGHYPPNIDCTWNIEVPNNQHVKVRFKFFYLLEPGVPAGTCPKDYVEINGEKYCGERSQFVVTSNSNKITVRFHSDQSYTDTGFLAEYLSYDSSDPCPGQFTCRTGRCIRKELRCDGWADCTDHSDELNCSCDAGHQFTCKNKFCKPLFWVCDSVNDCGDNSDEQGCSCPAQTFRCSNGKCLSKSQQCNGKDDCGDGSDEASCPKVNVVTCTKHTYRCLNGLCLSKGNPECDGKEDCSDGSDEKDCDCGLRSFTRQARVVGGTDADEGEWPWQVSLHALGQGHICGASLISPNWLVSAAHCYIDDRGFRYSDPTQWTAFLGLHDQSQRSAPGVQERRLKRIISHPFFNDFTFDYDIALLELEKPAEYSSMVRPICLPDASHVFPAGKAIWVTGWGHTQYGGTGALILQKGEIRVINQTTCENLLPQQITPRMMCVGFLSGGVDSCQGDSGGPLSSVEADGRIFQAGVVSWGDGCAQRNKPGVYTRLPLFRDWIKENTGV
endpoint: IC50 (nM)

* CC(=O)N[C@@H](CO)C(=O)N[C@@H](CCCCN)C(=O)N[C@@H](Cc1ccccc1)C(=O)N[C@@H](CCCNC(=N)N)C(=O)c1nccs1 | 6.1
* CC(=O)N[C@@H](CCCCN)C(=O)N[C@@H](CCC(N)=O)C(=O)N[C@@H](Cc1ccccc1)C(=O)N[C@@H](CCCNC(=N)N)C(=O)c1nccs1 | 1.4
* CN(C)C(=O)COC(=O)Cc1ccc(OC(=O)c2ccc(NC(=N)N)cc2)cc1 [Camostat, reference compound] | 7
* CC(=O)N[C@@H](CO)C(=O)N[C@@H](CCC(N)=O)C(=O)N[C@@H](CC(C)C)C(=O)N[C@@H](CCCNC(=N)N)C(=O)c1nccs1 | 18

---

target: UniProt:P00747
Sequence (P00747 581-810 limits assumed, species assumed): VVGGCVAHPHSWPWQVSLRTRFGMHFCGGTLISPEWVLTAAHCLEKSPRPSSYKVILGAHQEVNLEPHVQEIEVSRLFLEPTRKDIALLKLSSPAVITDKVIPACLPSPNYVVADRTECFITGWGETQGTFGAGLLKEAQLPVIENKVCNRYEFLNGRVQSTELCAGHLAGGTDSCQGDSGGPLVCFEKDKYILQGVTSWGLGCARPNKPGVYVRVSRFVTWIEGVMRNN
Sequence (P00747 97-580 partner limits assumed, species assumed): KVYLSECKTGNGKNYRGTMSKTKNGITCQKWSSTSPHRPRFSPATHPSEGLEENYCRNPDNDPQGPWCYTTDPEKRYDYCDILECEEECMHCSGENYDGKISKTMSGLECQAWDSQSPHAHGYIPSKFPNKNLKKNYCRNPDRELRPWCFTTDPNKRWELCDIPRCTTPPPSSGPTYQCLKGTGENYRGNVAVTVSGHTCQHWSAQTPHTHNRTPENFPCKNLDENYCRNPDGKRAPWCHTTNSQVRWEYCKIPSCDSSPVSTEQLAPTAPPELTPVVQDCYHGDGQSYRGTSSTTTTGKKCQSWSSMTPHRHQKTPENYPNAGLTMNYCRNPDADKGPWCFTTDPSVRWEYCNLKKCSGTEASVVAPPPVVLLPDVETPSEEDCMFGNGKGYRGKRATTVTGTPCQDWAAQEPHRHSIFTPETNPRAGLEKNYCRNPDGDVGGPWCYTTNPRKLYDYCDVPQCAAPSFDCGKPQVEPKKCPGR
Counter-ions that a name gives are not always drawn.
endpoint: IC50 (nM)

* CCOC(=O)c1ccc(OC(=O)CCCCCN=C(N)N)cc1 [Gabexate mesylate] | 265

---

Here the recorded log10 IC50 is given for each entry.
target: UniProt:Q04756
Sequence (Q04756 373-655, species assumed): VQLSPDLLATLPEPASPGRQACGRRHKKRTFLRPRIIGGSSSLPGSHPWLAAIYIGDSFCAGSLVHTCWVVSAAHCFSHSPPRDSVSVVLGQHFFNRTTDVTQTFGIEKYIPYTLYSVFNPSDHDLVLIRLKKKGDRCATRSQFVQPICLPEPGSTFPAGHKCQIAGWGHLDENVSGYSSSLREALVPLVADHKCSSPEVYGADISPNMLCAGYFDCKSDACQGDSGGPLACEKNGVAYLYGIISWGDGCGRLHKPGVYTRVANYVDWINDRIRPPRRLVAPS
endpoint: log10 IC50 (log10 of the value in nM)

• CC(=O)N[C@@H](CCCCN)C(=O)N[C@@H](CCC(N)=O)C(=O)N[C@@H](Cc1ccccc1)C(=O)N[C@@H](CCCNC(=N)N)C(=O)c1nccs1 = 2.06
• CC(=O)N[C@@H](Cc1c[nH]c2ccccc12)C(=O)N[C@@H](Cc1ccccc1)C(=O)N[C@@H](CCCNC(=N)N)C(=O)c1nc2ccccc2s1 = 2.52
• CC(=O)N[C@@H](CO)C(=O)N[C@@H](CCC(N)=O)C(=O)N[C@@H](CC(C)C)C(=O)N[C@@H](CCCNC(=N)N)C(=O)c1nccs1 = 2.56
• N=C(N)c1ccc2cc(OC(=O)c3ccc(N=C(N)N)cc3)ccc2c1 [Nafamostat, reference compound] = 2.20
• CC(=O)N[C@@H](CO)C(=O)N[C@@H](CCCCN)C(=O)N[C@@H](Cc1ccccc1)C(=O)N[C@@H](CCCNC(=N)N)C(=O)c1nccs1 = 2.06
• CC(=O)NC(CO)C(=O)NC(CCCCN)C(=O)NC(CC(C)C)C(=O)NC(CCCNC(=N)N)C(=O)c1nc2ccccc2s1 (centres unmarked) = 1.82
• CC(=O)N[C@@H](Cc1ccccc1)C(=O)N[C@@H](CC(C)C)C(=O)N[C@@H](Cc1ccccc1)C(=O)N[C@@H](CCCNC(=N)N)C(=O)c1nc2ccccc2s1 = 2.36
• CC(=O)N[C@@H](CC(C)C)C(=O)N[C@@H](CC(C)C)C(=O)N[C@@H](CCCNC(=N)N)C(=O)c1nccs1 = 2.70
• CC(=O)N[C@@H](CCC(N)=O)C(=O)N[C@@H](Cc1ccccc1)C(=O)N[C@@H](CCCNC(=N)N)C(=O)c1nc2ccccc2s1 = 1.15
• CC(=O)N[C@H](Cc1c[nH]c2ccccc12)C(=O)N[C@@H](Cc1ccccc1)C(=O)N[C@@H](CCCNC(=N)N)C(=O)c1nc2ccccc2s1 = 1.43
